Recorded logP, one value per entry.
PROPERTY: logP

1) COc1c(Cl)c(Cl)c(Cl)c(Cl)c1OC
4.86
2) COc1cc(Cl)c(Cl)cc1OC
3.11
3) COc1cc(Cl)c(Cl)c(Cl)c1OC
4.01
4) COc1cccc(Cl)c1Cl
3.24
5) COc1c(Cl)cccc1Cl
3.14

* * *

- CONDITION_INFO: 25 °C
Recorded solubility, one value per entry.
PROPERTY: solubility (µM)

1. COc1c(Cl)c(Cl)c(Cl)c(Cl)c1OC
5.76
2. COc1ccc(Cl)c(Cl)c1Cl
51.1
3. COc1cc(Cl)c(Cl)cc1OC
348
4. COc1c(Cl)c(Cl)cc(Cl)c1Cl
7.4
5. COc1cc(Cl)c(Cl)c(Cl)c1Cl
5.49
6. COc1c(Cl)cccc1Cl
791
7. COc1cccc(Cl)c1Cl
491
8. COc1cc(Cl)c(Cl)c(Cl)c1OC
42.6
9. COc1cccc(Cl)c1
1650
